Known IC50 of a selection of molecules
TEST_PROTOCOL: Rhodamine 123 quenching counterscreen activity, dose response, counter-screen for mtPTP inhibitor project, biochemical, dry powder samples, uHTS hits, fluorescence (AID 743361)
ASSAY_CONTEXT: Rhodamine 123 fluorescence quenching counterscreen, cell-free
Activity calls are given as the source filed them. How the calls were made is not given here.

Worked examples, 3 molecules total:
{"columns": ["SMILES_CODE", "RESULT"],
 "data": [
  ["COc1ccc(Cl)cc1C(=O)Nc1ccc(N(C)C)cc1", "> 100 µM (inactive)"],
  ["COc1ccc(Cl)cc1C(=O)Nc1ccc(CN2CCOCC2)cc1", "> 100 µM (inactive)"],
  ["CCN(C(=O)c1cc(Cl)ccc1OC)c1ccccc1", "> 100 µM (inactive)"]
]}

Prompt line: For the molecule shown here, `CN1CCN(c2ccc(NS(=O)(=O)c3cccc(Cl)c3)cc2)CC1` , give the reported IC50.
Response line: > 100 µM (inactive)

Prompt line: Bench note: what IC50 did `COc1ccc(Cl)c(C(=O)Nc2ccc(CN3CCN(C)CC3)cc2)c1` show?
Response line: > 100 µM (inactive)

Prompt line: Can you share its IC50? I mean this molecule: `COc1ccc(NC(=O)c2cc(Cl)cc(Cl)c2OC)cc1`
Response line: > 100 µM (inactive)

Prompt line: What value of measured IC50 is listed for `COc1ccc(Cl)cc1C(=O)Nc1ccc(CN2CCCCC2)cc1` ?
Response line: > 100 µM (inactive)

Prompt line: Can you share its IC50? I mean this molecule: `O=S(=O)(Nc1ccc(CN2CCCCC2)cc1)c1cccc(Cl)c1`
Response line: > 100 µM (inactive)

Prompt line: Can you share its IC50? I mean this molecule: `C[C@@H]1CCC[C@H](C)N1CCCC(=O)c1ccc(Br)cc1`
Response line: > 100 µM (inactive)

====

TEST_PROTOCOL: Rhodamine 123 quenching counterscreen activity, dose response, counter-screen for mtPTP inhibitor project, biochemical, dry powder samples, uHTS hits, fluorescence (AID 743361)
ASSAY_CONTEXT: Rhodamine 123 fluorescence quenching counterscreen, cell-free
Activity calls are given as the source filed them. How the calls were made is not given here.
Hello, when you answer, please use one of the following outcomes: yes = active, no = inactive

{"columns": ["SMILES_CODE", "CLASS_ASSIGNMENT"],
 "data": [
  ["O=C(Nc1cc(Cl)ccc1Cl)c1cc(-c2cccc(O)c2)on1", "yes"],
  ["COc1ccc(Cl)cc1C(=O)Nc1ccc(N2CCOCC2)cc1", "no"],
  ["COc1ccc(Cl)cc1C(=O)Nc1ccc(N2CCN(C)CC2)cc1", "no"]
]}

Prompt line: Just curious, what result did `COc1ccc(Cl)cc1C(=O)Nc1ccc(CN2CCNCC2)cc1` get here?
Response line: no

====

TEST_PROTOCOL: Rhodamine 123 quenching counterscreen activity, dose response, counter-screen for mtPTP inhibitor project, biochemical, dry powder samples, uHTS hits, fluorescence (AID 743361)
ASSAY_CONTEXT: Rhodamine 123 fluorescence quenching counterscreen, cell-free
Activity calls are given as the source filed them. No rule for the calls is given here.
Just give me one of these, please: true (1) = active, false (0) = inactive

{"columns": ["SMILES_CODE", "CLASS_ASSIGNMENT"],
 "data": [
  ["CCCc1cc(C(=O)Nc2ccc(Br)cc2)no1", "false (0)"]
]}

Prompt line: For `O=C(Nc1cc(Cl)cc(Cl)c1)c1cc(-c2cccc(O)c2)on1` , what call appears in the results of this test?
Response line: false (0)

Prompt line: Which outcome was entered for the molecule `O=C(Nc1cccc(Cl)c1)c1cc(-c2ccccc2)on1` in this test?
Response line: false (0)

Prompt line: GET /call?item= `COc1ccc(Cl)cc1C(=O)Nc1ccc(CCN2CCOCC2)cc1` returns the recorded outcome of this test.
Response line: false (0)

Prompt line: Record request — test call for `COc1ccc(Cl)cc1C(=O)Nc1ccc(N2CCCCC2)cc1`
Response line: false (0)

Prompt line: For `Cc1ccc(-c2cc(C(=O)Nc3cccc(Cl)c3)no2)cc1` , which call appears in the assay record?
Response line: false (0)

====

TEST_PROTOCOL: Rhodamine 123 quenching counterscreen activity, dose response, counter-screen for mtPTP inhibitor project, biochemical, dry powder samples, uHTS hits, fluorescence (AID 743361)
ASSAY_CONTEXT: Rhodamine 123 fluorescence quenching counterscreen, cell-free
Activity calls are given as the source filed them. No rule for the calls is given here.
The reply should name one outcome from T = active, F = inactive

Prompt line: Tell me the recorded outcome of this test for `O=C(Nc1cccc(Cl)c1Cl)c1cc(-c2cccc(O)c2)on1` .
Response line: F

Prompt line: # lookup: test call for `COc1ccc(Cl)cc1C(=O)Nc1ccccc1`
Response line: F

Prompt line: What call does the record list for `O=C(Nc1ccc(CN2CCCCC2)cc1)c1cc(Cl)ccc1O` ?
Response line: F

Prompt line: Recorded test outcome, item `O=C(Nc1ccc(Cl)cc1)c1cc(-c2ccccc2)on1`
Response line: F

Prompt line: Check the results log: what was the call for `O=S(=O)(Nc1ccc(CCN2CCCCC2)cc1)c1cccc(Cl)c1` ?
Response line: F

====

TEST_PROTOCOL: Rhodamine 123 quenching counterscreen activity, dose response, counter-screen for mtPTP inhibitor project, biochemical, dry powder samples, uHTS hits, fluorescence (AID 743361)
ASSAY_CONTEXT: Rhodamine 123 fluorescence quenching counterscreen, cell-free
Active and inactive are the calls of the source. How the calls were made is not given here.
API: response.call in True (active), False (inactive)

{"columns": ["SMILES_CODE", "CLASS_ASSIGNMENT"],
 "data": [
  ["COc1ccc(Cl)c(C(=O)Nc2ccc(CN3CCCCC3)cc2)c1", "False"],
  ["COc1ccc(Cl)cc1C(=O)Nc1cccc(CN2CCN(C(=O)OC(C)(C)C)CC2)c1", "True"],
  ["O=C(Nc1ccc(CN2CCCCC2)cc1)c1cc(Cl)cc(OCc2ccccc2)c1", "True"]
]}

Prompt line: Could you kindly confirm the outcome this assay logged for `COc1ccc(Cl)cc1C(=O)Nc1ccc(CN2CCN(C)CC2)cc1` ?
Response line: False
